details: 288.15 K; 101.33 kPa; Liquid
Numbers after ± are expanded uncertainties.
quantity-name: mass density

# example entries with known answers
- ClCCBr: 1744.36 ± 2.6 kg/m3
- BrCBr: 2501.88 ± 4.2 kg/m3
- ClCBr: 1945.94 ± 2.6 kg/m3
- ClCCCl: 1260.13 ± 0.86 kg/m3

# input for lookup
mass density measured on CCOC(C)=O [ethyl acetate] = 906.71 ± 0.47 kg/m3

* * *

settings: 308.15 K; 101.33 kPa; Liquid
Recorded mass density, one value per entry.
A number alone suffices; assume kg/m3.

- BrCBr [dibromomethane]: 2451.74
- ClCCCl [1,2-dichloroethane]: 1231.27
- ClCCBr [1-bromo-2-chloroethane]: 1708.86

The record that follows has no mass density shown yet.
Short answer for ClCBr [bromochloromethane] : mass density was 1900.86
